- target_system: PGF synthase (PGFS) (Homo sapiens, UniProt P42330)
- Construct: made in house
- Sequence (P42330 whole entry): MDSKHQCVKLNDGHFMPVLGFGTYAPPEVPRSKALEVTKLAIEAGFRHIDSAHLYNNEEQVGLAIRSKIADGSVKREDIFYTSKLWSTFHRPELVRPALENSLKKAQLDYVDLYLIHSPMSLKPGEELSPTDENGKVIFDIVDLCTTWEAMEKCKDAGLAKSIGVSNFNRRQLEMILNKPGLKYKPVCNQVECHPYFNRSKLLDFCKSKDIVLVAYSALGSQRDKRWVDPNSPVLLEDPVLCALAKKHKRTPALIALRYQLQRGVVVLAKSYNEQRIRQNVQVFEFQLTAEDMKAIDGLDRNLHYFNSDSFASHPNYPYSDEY
- assay_method_text: Test on PGF synthase (spectrophotometric, 340 nm, 9,10-phenanthrenequinone/β-NADPH)
- Format: biochemical
experimental_readout: IC50

>>> measured_result("C/C(=N/OCC(=O)Nc1ccccc1)c1cccs1")
"50 to 100 µM"
